# tested.system: Alpha-2B adrenergic receptor (Homo sapiens)
# assay.method.text: Agonistic potency at human adrenergic alpha-2B receptor expressed in CHO cells assessed as forskolin-induced cAMP accumulation
The molecules listed here are annotated with their EC50.

smiles.representation: C[C@H](Oc1ccccc1-c1ccccc1)C1=NCCN1
quantity.unit: µM
EC50: 0.692
--
smiles.representation: C[C@@H](Oc1ccccc1-c1ccccc1)C1=NCCN1
quantity.unit: µM
EC50: 100

---

# tested.system: Alpha-2B adrenergic receptor (Homo sapiens)
# Sequence (whole entry): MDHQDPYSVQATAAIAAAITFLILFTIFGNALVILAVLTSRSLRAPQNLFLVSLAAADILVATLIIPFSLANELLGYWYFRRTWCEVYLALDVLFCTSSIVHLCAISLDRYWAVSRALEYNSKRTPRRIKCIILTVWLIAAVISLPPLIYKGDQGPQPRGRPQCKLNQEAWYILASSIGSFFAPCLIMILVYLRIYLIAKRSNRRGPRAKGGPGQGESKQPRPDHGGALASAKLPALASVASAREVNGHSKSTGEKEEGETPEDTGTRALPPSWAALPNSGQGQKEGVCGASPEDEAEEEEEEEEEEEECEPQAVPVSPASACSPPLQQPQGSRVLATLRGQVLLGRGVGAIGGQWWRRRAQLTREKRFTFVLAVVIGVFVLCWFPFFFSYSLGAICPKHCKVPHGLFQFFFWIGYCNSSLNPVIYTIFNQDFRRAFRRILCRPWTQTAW
# assay.method.text: Intrinsic activity at human adrenergic alpha2B receptor expressed in CHO cells assessed as forskolin-induced cAMP accumulation relative to (-)- noradrenaline
# Assay type: functional, cell-based

compound: CC(Oc1ccccc1-c1cccc([N+](=O)[O-])c1)C1=NCCN1 (racemic)
tested.system: Alpha-2B adrenergic receptor (Homo sapiens)
limit.sign: <
Intrinsic activity: 0.3
//
compound: CC(Oc1ccccc1-c1cccc(O)c1)C1=NCCN1 (racemic)
tested.system: Alpha-2B adrenergic receptor (Homo sapiens)
limit.sign: =
Intrinsic activity: 0.5
//
compound: C[C@@H](Oc1ccccc1-c1ccccc1)C1=NCCN1
tested.system: Alpha-2B adrenergic receptor (Homo sapiens)
limit.sign: =
Intrinsic activity: 0.4
//
compound: CC(Oc1ccccc1-c1cccc(F)c1)C1=NCCN1 (racemic)
tested.system: Alpha-2B adrenergic receptor (Homo sapiens)
limit.sign: <
Intrinsic activity: 0.3
//
compound: CC(Oc1ccccc1-c1cccnc1)C1=NCCN1 (racemic)
tested.system: Alpha-2B adrenergic receptor (Homo sapiens)
limit.sign: =
Intrinsic activity: 0.5
//
compound: CC(Oc1ccccc1-c1ccccc1)C1=NCCN1 (racemic)
tested.system: Alpha-2B adrenergic receptor (Homo sapiens)
limit.sign: =
Intrinsic activity: 0.5
//
compound: C[C@H](Oc1ccccc1-c1ccccc1)C1=NCCN1
tested.system: Alpha-2B adrenergic receptor (Homo sapiens)
limit.sign: =
Intrinsic activity: 0.65
